Taken from ChEMBL document CHEMBL6127063.

experiment: Inhibition of full length his-tagged recombinant Leishmania donovani CYP51-32c
result type: IC50

INPUT: Fill in the blank: the reported IC50 of O=C(Nc1ccc(OCc2cc(C(F)(F)F)cc(C(F)(F)F)c2)cc1)N1CCN(CCc2ccccc2)CC1 is ____.
OUTPUT: > 100 µM

###

tested on: Leishmania donovani; assay: Antileishmanial activity against Leishmania donovani LV82 promastigotes infected in female mouse Peritoneal macrophage cells incubated for 72 hrs by DAPI staining based analysis; format: functional, organism-based
pEC50: −log10 of the molar value.
pEC50 by entry:

O=C(Nc1cc(C(F)(F)F)cc(C(F)(F)F)c1)N1CCN(Cc2ccncc2)CC1 :: < 4.30

Here is another compound to look at.
INPUT: So what's the measured pEC50 for this one? CC(C)(C)c1cccc(NC(=O)N2CCN(Cc3ccncc3)CC2)c1
OUTPUT: < 4.30
